From: patent US20240254206A1

koff reference
target: 2CC-core
measurement-description: SPR, antigen on chip, IgG injected

Worked set:
>>> result("8ANC134 (antibody, V domains shown, also called 8ANC134HC; 8ANC134KC) VH: QGQLVQSGGGVKKPGTSVTISCLASEYTFNEFVIHWIRQAPGQGPVWLGLIKRSGRLMTSYKFQDRLSLRRDRSTGTVFMELRGLRLDDTAVYYCARDGLGEVAPAYLYGIDAWGQGSTVIVTS VL: EIVLTQSPATLSLSPGERATLSCRASQGLNFVVWYQQKGGQAPRLLIHGPTDRAPGVPDRFSARGSGTEFSLVISSVEPDDFALYYCQEYSSTPYNFGPGTRVDRKR")
"0.000957 s⁻¹"
>>> result("3BNC156 (antibody, V domains shown, also called 3BNC156HC; 3bnc156kc) VH: QVQLVQSGAALKKPGASLRISCQTYGYKFTDHLIYWWRQAPGQGLEWIGWIKPETGQPSYSYRFQGRVSLTRDTFEEIVFMDLRGLRSDDTAIYFCARRHSDYCDFDVWGGGSQVIVSS VL: DIQMTQSPSSLSASVGDTVTITCQTNKGYLNWYQQKRGRAPKLLMYDGSKLVTGVPSRLSGRRWGTQYNLTIGSLQPEDIATYYCQVYEFFGPGTRLDLKR")
"0.00153 s⁻¹"

From here, focus on the item given below.
Form field: reported koff of 3BNC60 (antibody, V domains shown, also called 3BNC60HC; 3BNC60KC) VH: QVHLSQSGAAVTKPGASVRVSCEASGYKISDHFIHWWRQAPGQGLQWVGWINPKTGQPNNPRQFQGRVSLTRQASWDFDTYSFYMDLKAVRSDDTAIYFCARQRSDFWDFDVWGSGTQVTVSSASTKG VL: DIQMTQSPSSLSARVGDTVTITCQANGYLNWYQQRRGKAPKLLIYDGSKLERGVPARFSGRRWGQEYNLTINNLQPEDVATYFCQVYEFIVPGTRLDLKRTVAA
0.00164 s⁻¹
